Where do these numbers come from? They come from ChEMBL document CHEMBL1141872.

TEST_PROTOCOL: Emetic threshold as plasma concentration in squirrel monkeys after 10 mg/kg oral dose
Format: ADME, organism-based
Design: dose 10 mg/kg, route oral
TEST_CONDITIONS: saimiri, read-out: Emesis_Cmax
TEST_READOUT: Cmax (µM)
One number for each entry, in µM.

A selection of reference data follows.
1) CC(C)NC(=O)/C(=C/c1cccc(-c2cc(C(C)(C)C#N)cc3cccnc23)c1)c1ccc(S(C)(=O)=O)cc1 :: 1.9
2) CC(C)c1cc(-c2cccc(CC(c3ccncc3)C(C)(C)O)c2)c2ncccc2c1 (centres undefined) :: 11.9
3) COc1ccc([C@H](Cc2ccncc2)c2ccccc2)cc1OC1CCCC1 :: 4

Now examine the next entry.
stdin: Fill in the blank: the reported Cmax of Cc1noc(/C(=C/c2cccc(-c3cc(C(C)(C)S(C)(=O)=O)cc4cccnc34)c2)c2ccc(S(C)(=O)=O)cc2)n1 is ____.
stdout: 3.8
